Where do the numbers come from? From PubChem BioAssay (NCATS).

Measured on: Cytochrome P450 1A2 (Homo sapiens)
Test description: p450-cyp1a2 (AID 410); note: potency is the fitted concentration of half-maximal effect
Assay setup: recombinant CYP1A2, luciferin-ME demethylation, luminescence; series mostly up to 57 µM
Inconclusive results are not listed. Activity calls are given as the source filed them. Calls come from the whole dose curve.
Measurement label: Potency

See these solved cases before continuing.
Smiles: CN(Cc1ccco1)c1ncnc2ccc(-c3cccc(NS(C)(=O)=O)c3)cc12
Potency: 0.398 µM (active)
--
Smiles: CN(Cc1ccco1)c1nc(-c2ccccc2C(F)(F)F)nc2ccccc12
Potency: 2 µM (active)
--
Smiles: COc1ccc2[nH]cc(CCNc3ncncc3-c3ccccc3Cl)c2c1
Potency: 0.631 µM (active)
--
Smiles: COc1ccc2[nH]cc(CCNc3ncncc3-c3ccccc3C(F)(F)F)c2c1
Potency: 10 µM (active)
--
Smiles: COc1ccc2[nH]cc(CCNc3nc(-c4ccccc4OC)nc4ccccc34)c2c1
Potency: 6.31 µM (active)
--
Smiles: COc1ccc(-c2nc3cnc(Oc4cccc(Cl)c4)nc3n(C[C@H]3CCCO3)c2=O)cc1
Potency: 5.01 µM (active)

Request body: readout Potency, system Cytochrome P450 1A2 (Homo sapiens), query c1ccc(Nc2nc(-c3ccoc3)nc3ccccc23)cc1 . Return the value.
0.2 µM (active)

Record: COc1ncc2nc(CCc3ccccc3)c(=O)n(-c3ccccc3)c2n1
12.6 µM (active)

----------
System: 3D7
Test description: qHTS profiling for inhibitors of Plasmodium falciparum proliferation (AID 504749); note: nearly all actives have a fitted effect of over 60% in size
Assay setup: P. falciparum in erythrocytes, SYBR Green DNA, 72 h; series mostly up to 28.7 µM
Inconclusive results are not listed. The source made the active and inactive calls. Calls follow the shape of the dose curve; as a rule, active = well fitted inhibition curve with a large enough effect; inconclusive = small, poorly fitted or top-dose-only effect; inactive = flat fitted curve, though single readings scatter. Bridge positions count the residues as written; N and C are the ends. Square brackets hold non-standard residues; d marks the D form. Peptide text beside a SMILES is read from it. * marks the point of attachment. Octanoyl(6-Me) = CCC(C)CCCCC(=O)*; Dab = NCC[CH](N)C(=O)O
Hi there, use one of these labels in your reply, thanks! active, inactive

Worked cases, answers included:
Compound: Cc1cc(CC(C)CC(C)(C)C)n(O)c(=O)c1 (stereo not given)
Class: active
//
Compound: CC(=O)OC1CC2CCC1(C)C2(C)C (stereo not given)
Class: inactive
//
Compound: CCC(C)CCCCC(=O)NC(CCN)C(=O)NC(C(=O)NC(CCN)C(=O)NC1CCNC(=O)C(C(C)O)NC(=O)C(CCN)NC(=O)C(CCN)NC(=O)C(CC(C)C)NC(=O)C(Cc2ccccc2)NC(=O)C(CCN)NC1=O)C(C)O (stereo not given) ({Octanoyl(6-Me)}-[Dab]T[Dab][Dab][Dab]FL[Dab][Dab]T; lactam 4-C; configuration not given here)
Class: inactive

GET /call?item= CCC(=O)O[C@@H](OP(=O)(CCCCc1ccccc1)CC(=O)N1C[C@H](C2CCCCC2)C[C@H]1C(=O)O)C(C)C (stereo not given in full) returns the recorded outcome of this test.
inactive

Record: CC(=O)O[C@@]12CO[C@@H]1C[C@H](O)[C@@]1(C)C(=O)[C@H](O)C3=C(C)[C@@H](OC(=O)C(O)[C@@H](NC(=O)OC(C)(C)C)c4ccccc4)C[C@@](O)([C@@H](OC(=O)c4ccccc4)[C@H]21)C3(C)C (stereo not given in full)
active

----------
Measured on: Ubiquitin carboxyl-terminal hydrolase 1 (Homo sapiens) (UniProt O94782)
Sequence (O94782 whole entry, looked up): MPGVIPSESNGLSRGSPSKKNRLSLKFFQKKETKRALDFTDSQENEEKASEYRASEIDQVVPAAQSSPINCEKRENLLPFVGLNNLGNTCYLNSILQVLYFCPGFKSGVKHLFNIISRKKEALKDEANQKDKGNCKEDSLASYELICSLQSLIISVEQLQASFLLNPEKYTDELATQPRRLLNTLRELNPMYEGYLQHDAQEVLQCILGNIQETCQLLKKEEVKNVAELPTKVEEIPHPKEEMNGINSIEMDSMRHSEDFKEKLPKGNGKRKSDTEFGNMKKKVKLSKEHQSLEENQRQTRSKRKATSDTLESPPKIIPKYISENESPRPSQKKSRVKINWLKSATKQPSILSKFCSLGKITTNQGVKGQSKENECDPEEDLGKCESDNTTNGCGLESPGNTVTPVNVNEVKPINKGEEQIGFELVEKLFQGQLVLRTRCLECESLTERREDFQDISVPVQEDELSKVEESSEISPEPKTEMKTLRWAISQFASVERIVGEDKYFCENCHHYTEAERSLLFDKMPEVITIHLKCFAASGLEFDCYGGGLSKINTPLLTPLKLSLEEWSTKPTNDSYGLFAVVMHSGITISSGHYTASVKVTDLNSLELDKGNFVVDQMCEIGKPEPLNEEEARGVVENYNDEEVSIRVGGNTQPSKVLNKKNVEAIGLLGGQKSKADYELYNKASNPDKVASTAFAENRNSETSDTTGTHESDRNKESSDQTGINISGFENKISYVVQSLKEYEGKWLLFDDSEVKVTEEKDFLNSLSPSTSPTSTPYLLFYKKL
Test description: Inhibitors of USP1/UAF1: Pilot qHTS (AID 504865);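 note: rhodamine fluorescence freed from ubiquitin-rhodamine substrate followed over time; top concentration of the series differs between compounds; nearly all actives have a fitted effect of over 35% in size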
Assay setup: purified USP1/UAF1, Ub-rhodamine cleavage fluorescence; series mostly up to 54.9 µM
Inconclusive results are not listed. Activity calls are given as the source filed them. The call rests on the fitted dose curve; in most records, active means well fitted inhibition curve with a large enough effect; inconclusive means small, poorly fitted or top-dose-only effect; inactive means flat fitted curve, though single readings scatter.
Hi there, use one of these labels in your reply, thanks! active, inactive

GET /call?item= COc1ccccc1-c1nc(N2CCN(C)CC2)c2ccccc2n1 returns the recorded outcome of this test.
inactive

----------
Measured on: Glutathione peroxidase 1 (Homo sapiens) (UniProt P07203)
Sequence (P07203 whole entry, looked up): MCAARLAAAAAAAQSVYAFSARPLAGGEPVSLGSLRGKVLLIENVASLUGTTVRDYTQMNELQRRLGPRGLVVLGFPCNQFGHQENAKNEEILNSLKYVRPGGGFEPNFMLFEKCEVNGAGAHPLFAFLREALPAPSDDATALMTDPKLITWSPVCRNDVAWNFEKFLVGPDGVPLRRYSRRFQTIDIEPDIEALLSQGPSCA
Test description: Primary qHTS Assay for Inhibitors of Recombinant Selenoprotein Glutathione Peroxidase 1 (GPX1) (AID 1845191); note: nearly all actives have a fitted effect of over 65% in size
Assay setup: recombinant GPX1, GR-coupled NADPH fluorescence, 15 min; series mostly up to 48.8 µM
Inconclusive results are not listed. Calls of active or inactive are those of the source. Calls follow the shape of the dose curve; as a rule, active = well fitted inhibition curve with a large enough effect; inconclusive = small, poorly fitted or top-dose-only effect; inactive = flat fitted curve, though single readings scatter. Bridge positions count the residues as written; N and C are the ends. Square brackets hold non-standard residues; d marks the D form. Peptide text beside a SMILES is read from it. Orn = NCCC[CH](N)C(=O)O; Mpa = O=C(O)CCS
Hi there, use one of these labels in your reply, thanks! yes = active, no = inactive

Worked cases, answers included:
Molecule: C=CS(=O)(=O)N1CCCN(c2cc(NCCC(=O)O)nc(-c3ccccn3)n2)CC1
Class: no
//
Molecule: CN[C@@H]1[C@@H](O)[C@@H](O[C@@H]2[C@@H](O)[C@H](OC3O[C@H](CN)[C@@H](O)[C@H](O)[C@H]3O)[C@@H](N)C[C@H]2NC(=O)[C@@H](O)CN)OC[C@]1(C)O (stereo not given in full)
Class: no
//
Molecule: CC/C=C(\C(=O)N[C@H]1C(=O)N2C(C(=O)OCOC(=O)C(C)(C)C)=C(COC(N)=O)CS[C@H]12)c1csc(N)n1
Class: yes
//
Molecule: O=C1CCC(C(=O)O)N1 (stereo not given)
Class: no
//
Molecule: O=C(O)C[C@@H]1CC[C@H](NC(=O)Cc2cccs2)B(O)O1
Class: no
//
Molecule: CC1(C)S[C@@H]2[C@H](NC(=O)[C@H](NC(=O)N3CCNC3=O)c3ccccc3)C(=O)N2C1C(=O)O (stereo not given in full)
Class: no
//
Molecule: Cc1ccc2c(c1)-c1nc(-c3ccc(Cl)cc3)cc(-c3coc4ccccc4c3=O)c1CO2
Class: no
//
Molecule: COc1ccc(Nc2cc(C)c3cc(NC(=O)c4cc(OC)cc(OC)c4)ccc3n2)cc1
Class: no
//
Molecule: Cc1ccc(C(=O)/C=C/c2ccccc2)s1
Class: no
//
Molecule: CC(C)CC(NC(=O)CNC(=O)C(Cc1ccc(O)cc1)NC(=O)C(CO)NC(=O)C(Cc1c[nH]c2ccccc12)NC(=O)C(Cc1cnc[nH]1)NC(=O)C1CCC(=O)N1)C(=O)NC(CCCN=C(N)N)C(=O)N1CCCC1C(=O)NCC(N)=O (stereo not given)
Class: no

GET /call?item= C[N+]1(C)[C@@H]2CC(OC(=O)C(O)(c3cccs3)c3cccs3)C[C@H]1[C@H]1O[C@@H]12 (stereo not given in full) returns the recorded outcome of this test.
no

Record: CC(C)Oc1ccc(-c2c[nH]cc2CN(C)CCN)cc1
no

Record: CCOc1ccc(CC2NC(=O)CCSSCC(C(=O)N3CCCC3C(=O)NC(CCCN)C(=O)NCC(N)=O)NC(=O)C(CC(N)=O)NC(=O)C(C(C)O)NC(=O)C(C(C)CC)NC2=O)cc1 (stereo not given) ([Mpa]Y(Et)ITNCP[Orn]G-NH2; disulfide 1-6; configuration not given here)
no

Record: CC1(C)CC[C@]2(C(=O)O)CC[C@]3(C)C(=CC[C@@H]4[C@@]5(C)CC[C@H](O)C(C)(C)[C@@H]5CC[C@]43C)[C@@H]2C1
no

Record: CCCC(=O)O[C@]1(C(=O)COC(C)=O)CC[C@H]2C3C[C@H](F)C4=CC(=O)C=C[C@]4(C)[C@@]3(F)[C@@H](O)C[C@@]21C (stereo not given in full)
no

----------
Measured on: Rap guanine nucleotide exchange factor 3 (Homo sapiens) (UniProt O95398)
Sequence (O95398 whole entry, looked up): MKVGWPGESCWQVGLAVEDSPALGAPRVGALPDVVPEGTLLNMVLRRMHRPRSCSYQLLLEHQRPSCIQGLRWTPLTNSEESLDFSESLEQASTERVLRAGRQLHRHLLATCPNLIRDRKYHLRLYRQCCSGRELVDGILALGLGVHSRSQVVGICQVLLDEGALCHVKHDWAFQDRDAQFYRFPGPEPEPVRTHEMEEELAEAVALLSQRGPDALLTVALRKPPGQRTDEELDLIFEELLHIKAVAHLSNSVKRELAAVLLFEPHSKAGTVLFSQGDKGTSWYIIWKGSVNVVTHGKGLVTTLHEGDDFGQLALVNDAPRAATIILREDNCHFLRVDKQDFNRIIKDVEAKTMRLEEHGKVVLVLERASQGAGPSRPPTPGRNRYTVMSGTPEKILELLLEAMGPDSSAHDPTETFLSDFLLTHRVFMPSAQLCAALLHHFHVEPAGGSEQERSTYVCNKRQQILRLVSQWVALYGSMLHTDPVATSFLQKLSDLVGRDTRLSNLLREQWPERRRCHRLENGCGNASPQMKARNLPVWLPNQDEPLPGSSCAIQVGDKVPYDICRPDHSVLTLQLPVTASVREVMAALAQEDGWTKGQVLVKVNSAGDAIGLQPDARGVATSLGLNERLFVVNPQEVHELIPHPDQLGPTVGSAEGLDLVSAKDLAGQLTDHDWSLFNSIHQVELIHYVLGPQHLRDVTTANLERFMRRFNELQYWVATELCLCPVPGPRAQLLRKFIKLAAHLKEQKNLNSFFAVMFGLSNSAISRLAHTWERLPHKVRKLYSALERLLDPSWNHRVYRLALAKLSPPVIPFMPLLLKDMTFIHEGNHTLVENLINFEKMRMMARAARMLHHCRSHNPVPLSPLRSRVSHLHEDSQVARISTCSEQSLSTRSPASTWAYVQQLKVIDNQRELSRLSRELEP
Test description: Confirmatory qHTS for antagonist of cAMP-regulated guanine nucleotide exchange factor 3 (EPAC1) (AID 1645880); note: nearly all actives have a fitted effect of over 55% in size
Assay setup: EPAC1 Rap1B-BODIPY-GDP exchange, fluorescence
Inconclusive results are not listed. The source made the active and inactive calls. Calls follow the shape of the dose curve; as a rule, active = well fitted inhibition curve with a large enough effect; inconclusive = small, poorly fitted or top-dose-only effect; inactive = no such curve, though single readings can be large or run the other way.
Hi there, use one of these labels in your reply, thanks! 1 = active, 0 = inactive

Worked cases, answers included:
Compound: Cc1cc2ccccn2c1C(=O)c1ccc(F)cc1
Class: 0

Compound: COc1ccc(N2CCN(CC(O)COc3ccc(C(C)C)c(C)c3)CC2)cc1 (stereo not given)
Class: 0

Compound: O=C(Nc1ccccc1Cc1ccccc1)c1ccccc1NS(=O)(=O)c1ccc(Cl)s1
Class: 1

Compound: COc1ccc(C(=S)N2CCOCC2)cc1OC(=O)c1ccccc1Cl
Class: 0

Compound: CC(=O)CCc1oc2ccccc2c1-c1ccccc1
Class: 0

Compound: O=C(O)CCn1cc(C2CC(c3ccccc3)=NN2c2ccccc2)c(-c2ccccc2)n1 (stereo not given)
Class: 0

Compound: CCOC(=O)C(Cc1ccc(Cl)cc1Cl)c1ccno1 (stereo not given)
Class: 0

Compound: COc1ccc(C(=O)N(Cc2ccccc2)c2cccc(C)c2)cc1
Class: 0

GET /call?item= CCc1nc2ccccc2c(C(=O)NCc2ccccc2)c1C returns the recorded outcome of this test.
0

Record: C=CCN1C(=O)/C(=C/C=C2/N(CC)c3ccc(S(=O)(=O)N(C)C)cc3N2CC)SC1=S
0

Record: O=C1C(O)=CC(=C(c2ccccc2)c2ccccc2)c2ccccc21
0

Record: CCc1ccccc1N(C)S(=O)(=O)c1ccc2[nH]cc(C(=O)N3CCc4ccccc43)c(=O)c2c1
0

Record: Nc1ncc(Br)cc1S(=O)(=O)Nc1cc(C(F)(F)F)cc(C(F)(F)F)c1
1
